- Test system: PPARg:RXRa (NR concentration 180 nM, RXRa partner concentration 90 nM)
- experimental.details: PBM binding z-score (relative to random genomic background probes); higher = stronger binding; sequences stand for … in GC…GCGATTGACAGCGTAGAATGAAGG
PBM binding z-score overview
Just the number, please, no unit after it.

>  <sequence>
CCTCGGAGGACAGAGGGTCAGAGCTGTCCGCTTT

>  <PBM binding z-score>
-0.24

$$$$
>  <sequence>
AGTCAAAGTTCATCTAGGTAACGTTAGATATGCT

>  <PBM binding z-score>
6.36

$$$$

Looking for the measured PBM binding z-score of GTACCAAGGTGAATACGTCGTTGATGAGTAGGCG , can you help? 0.854

Which measured PBM binding z-score value corresponds to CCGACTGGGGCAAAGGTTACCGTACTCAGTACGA ? 10.6

Given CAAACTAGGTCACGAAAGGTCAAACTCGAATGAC , state its recorded PBM binding z-score. 10.5

Reported PBM binding z-score for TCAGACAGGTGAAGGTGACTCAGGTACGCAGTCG : what is it? 0.781

---

- System: PPARa:RXRa (NR concentration 270 nM, RXRa partner concentration 90 nM)
- experimental.details: PBM binding z-score (relative to random genomic background probes); higher = stronger binding; sequences stand for … in GC…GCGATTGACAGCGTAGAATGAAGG
// reported PBM binding z-score for each item listed
Just the number, please.

>  <sequence>
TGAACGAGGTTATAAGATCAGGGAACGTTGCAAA

>  <PBM binding z-score>
2.56

$$$$

Look up PBM binding z-score: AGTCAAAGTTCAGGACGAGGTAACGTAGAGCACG 3.59

Quick one: PBM binding z-score of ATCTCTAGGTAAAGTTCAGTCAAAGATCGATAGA ? 2.44

# query: PBM binding z-score of entry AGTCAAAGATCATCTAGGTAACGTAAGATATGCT 0.828

Name the recorded PBM binding z-score for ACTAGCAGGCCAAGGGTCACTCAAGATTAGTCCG . 4.43

Return reported PBM binding z-score; argument: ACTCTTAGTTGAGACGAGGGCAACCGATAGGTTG 0.348

---

- System: LXRb:RXRa (NR concentration 270 nM, RXRa partner concentration 90 nM)
- experimental.details: PBM binding z-score (relative to random genomic background probes); higher = stronger binding; sequences stand for … in GC…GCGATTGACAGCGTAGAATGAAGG
// label = label 1 if PBM binding z-score is not less than 3, otherwise label 0

Tell me whether PBM binding z-score is at least 3 here: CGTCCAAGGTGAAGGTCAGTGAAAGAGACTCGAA label 0

PBM binding z-score >= 3 for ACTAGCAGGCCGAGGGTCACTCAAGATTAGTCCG ? label 0

Quick check, PBM binding z-score >= 3? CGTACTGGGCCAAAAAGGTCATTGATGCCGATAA label 1

Please check the record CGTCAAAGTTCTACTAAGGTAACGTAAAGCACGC and state if its PBM binding z-score is at or above 3. label 0

Could you tell me if the measured PBM binding z-score of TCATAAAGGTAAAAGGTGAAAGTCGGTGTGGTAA reaches 3 or more? label 0

---

- Tested on: PPARa:RXRa (NR concentration 270 nM, RXRa partner concentration 90 nM)
- experimental.details: PBM binding z-score (relative to random genomic background probes); higher = stronger binding; sequences stand for … in GC…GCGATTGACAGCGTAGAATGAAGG
Classify by measured PBM binding z-score: met if it is equal to or exceeds 3, not met if it is smaller.

Solved cases below.
>  <sequence>
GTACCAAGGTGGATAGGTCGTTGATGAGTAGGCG

>  <assigned.class>
not met

$$$$
>  <sequence>
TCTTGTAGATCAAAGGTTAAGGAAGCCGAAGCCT

>  <assigned.class>
met

$$$$

Moving on to another sequence below.
Please check the record CCGACTGGGGCAGAAACGTTACCATACCATCCGG and state if its PBM binding z-score is at or above 3. not met

Values compiled from the supplement of paper PMC6555819.
